Tested on: Caupolican (Caup) homeodomain DNA-binding domain
Sequence: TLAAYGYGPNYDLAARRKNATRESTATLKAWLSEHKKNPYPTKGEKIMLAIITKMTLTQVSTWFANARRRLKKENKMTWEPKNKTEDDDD
protocol summary: PBM E-score (8-mer, recovered from the published 9-mer minima) (E-score (dimensionless, -0.5 to 0.5)); higher = stronger relative binding preference, active = 0.31 or more
Many of the other results were omitted from the sample, so hits are more common in it than they were. No count for the full screen is at hand.
quantity kind: PBM E-score

QUERY: Query PBM E-score on Caupolican (Caup) homeodomain DNA-binding domain for GCACGTCC
RESULT: -0.0893 (inactive)

QUERY: How about this sequence: ATTCTCCG
RESULT: -0.0182 (inactive)

QUERY: How about this sequence: CATGTTCC
RESULT: 0.409 (active)

QUERY: How about this sequence: AGTGACGC
RESULT: -0.155 (inactive)

QUERY: How about this sequence: GATGTTCA
RESULT: 0.303 (inactive)

QUERY: How about this sequence: TACCTTGA
RESULT: 0.0541 (inactive)

QUERY: How about this sequence: AACAAGTC
RESULT: 0.278 (inactive)

QUERY: How about this sequence: AGTCAGAC
RESULT: -0.0283 (inactive)

QUERY: How about this sequence: ACTCCTTG
RESULT: 0.0436 (inactive)

QUERY: How about this sequence: ATACATTC
RESULT: ≥ 0.314 (active)

QUERY: How about this sequence: CGACATCA
RESULT: 0.284 (inactive)

QUERY: How about this sequence: CTACATAA
RESULT: 0.22 (inactive)

QUERY: How about this sequence: CCTGTTCG
RESULT: 0.0935 (inactive)

QUERY: How about this sequence: CGTTGTCA
RESULT: 0.251 (inactive)

QUERY: How about this sequence: ACATATAT
RESULT: 0.343 (active)

QUERY: How about this sequence: ACATATAG
RESULT: 0.256 (inactive)

QUERY: How about this sequence: AACAAGTT
RESULT: 0.33 (active)

QUERY: How about this sequence: CTACATTC
RESULT: 0.119 (inactive)

QUERY: How about this sequence: GGTTGTCA
RESULT: 0.331 (active)

QUERY: How about this sequence: GATGTTCC
RESULT: 0.281 (inactive)

QUERY: How about this sequence: AGACATAT
RESULT: 0.264 (inactive)

QUERY: How about this sequence: TATGTTCA
RESULT: 0.324 (active)

QUERY: How about this sequence: CATGTTCG
RESULT: 0.399 (active)

QUERY: How about this sequence: ACACATAT
RESULT: 0.323 (active)

QUERY: How about this sequence: TGACATAA
RESULT: 0.311 (active)

QUERY: How about this sequence: AGACATAC
RESULT: 0.222 (inactive)

QUERY: How about this sequence: AAGCTCCT
RESULT: -0.0876 (inactive)

QUERY: How about this sequence: AGTTGTCA
RESULT: 0.315 (active)

QUERY: How about this sequence: AATGTTCG
RESULT: 0.154 (inactive)

QUERY: How about this sequence: AACAAGGT
RESULT: 0.293 (inactive)

QUERY: How about this sequence: CGTCATAA
RESULT: 0.081 (inactive)

QUERY: How about this sequence: GGACATAA
RESULT: 0.211 (inactive)

QUERY: How about this sequence: AGAGTCGG
RESULT: -0.0944 (inactive)

QUERY: How about this sequence: AGTTGTCC
RESULT: 0.235 (inactive)

QUERY: How about this sequence: TGTCATAA
RESULT: 0.338 (active)

QUERY: How about this sequence: ATACATAA
RESULT: 0.348 (active)

QUERY: How about this sequence: ATTAGGAA
RESULT: 0.0485 (inactive)

QUERY: How about this sequence: AATCGAGC
RESULT: 0.0234 (inactive)

QUERY: How about this sequence: AGCCGTTC
RESULT: -0.195 (inactive)

QUERY: How about this sequence: ATACATTG
RESULT: 0.261 (inactive)

QUERY: How about this sequence: TCAGTGAA
RESULT: -0.0554 (inactive)

QUERY: How about this sequence: AGTTGTCG
RESULT: 0.235 (inactive)

QUERY: How about this sequence: AGCATACA
RESULT: 0.202 (inactive)

QUERY: How about this sequence: ACATATAC
RESULT: 0.291 (inactive)

QUERY: How about this sequence: AACATAGA
RESULT: 0.232 (inactive)

QUERY: How about this sequence: AATGTTCA
RESULT: 0.244 (inactive)

----------
Tested on: Caupolican (Caup) homeodomain DNA-binding domain
Sequence: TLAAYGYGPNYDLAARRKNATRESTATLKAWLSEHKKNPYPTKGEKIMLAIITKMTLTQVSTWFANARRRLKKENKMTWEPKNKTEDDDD
protocol summary: PBM E-score (8-mer, recovered from the published 9-mer minima) (E-score (dimensionless, -0.5 to 0.5)); Drosophila protein; higher = stronger relative binding preference, active = 0.31 or more
The full list was thinned out, with hits kept by preference. The true hit rate is not given.
// allowed return values: true (active), false (inactive)

QUERY: Which outcome was assigned to AAATACAG in this test?
RESULT: false

QUERY: How about this sequence: CCTCTGTC
RESULT: false

QUERY: How about this sequence: CCATCAGA
RESULT: false

QUERY: How about this sequence: ACAACACA
RESULT: true

QUERY: How about this sequence: ACTGAGCA
RESULT: false

QUERY: How about this sequence: CATATACA
RESULT: false

QUERY: How about this sequence: CGGGAAAA
RESULT: false

QUERY: How about this sequence: AGGTGGCC
RESULT: false

QUERY: How about this sequence: GCCGTGTA
RESULT: true

QUERY: How about this sequence: GATATACA
RESULT: false

QUERY: How about this sequence: CCCGTGTA
RESULT: false

QUERY: How about this sequence: ATGTTGTG
RESULT: false

QUERY: How about this sequence: ATTATACA
RESULT: false

QUERY: How about this sequence: CCAGACAC
RESULT: false

QUERY: How about this sequence: GCAACACA
RESULT: false

QUERY: How about this sequence: ATGACAGA
RESULT: false

QUERY: How about this sequence: CAAGCCCC
RESULT: false

QUERY: How about this sequence: TGTATACA
RESULT: true

QUERY: How about this sequence: GCCGCCCA
RESULT: false

QUERY: How about this sequence: GACCGAGA
RESULT: false

QUERY: How about this sequence: TGTAGACA
RESULT: true

QUERY: How about this sequence: CTGTTGAC
RESULT: false

QUERY: How about this sequence: GGTGGTTA
RESULT: false

QUERY: How about this sequence: CGAACCCC
RESULT: false

QUERY: How about this sequence: ACTATGTG
RESULT: false

QUERY: How about this sequence: AAGAGACA
RESULT: false

QUERY: How about this sequence: AAACTTGG
RESULT: false

QUERY: How about this sequence: AATATACC
RESULT: false

QUERY: How about this sequence: CTGACATA
RESULT: false

QUERY: How about this sequence: AGTATACA
RESULT: false

QUERY: How about this sequence: AGCTCATC
RESULT: false

QUERY: How about this sequence: ACCGTGTG
RESULT: false

QUERY: How about this sequence: CGAACACG
RESULT: false

QUERY: How about this sequence: CTGTTGTA
RESULT: false

QUERY: How about this sequence: CCTATGTC
RESULT: false

QUERY: How about this sequence: GATGCCCA
RESULT: false

QUERY: How about this sequence: GTGTTGCA
RESULT: false

QUERY: How about this sequence: GAAGACTC
RESULT: false

QUERY: How about this sequence: ACAGGAGT
RESULT: false

QUERY: How about this sequence: CACGGGAA
RESULT: false

QUERY: How about this sequence: GACTTACC
RESULT: false

QUERY: How about this sequence: GTGTTGTA
RESULT: true

QUERY: How about this sequence: CACTTCCG
RESULT: false

QUERY: How about this sequence: ACAACACG
RESULT: true

QUERY: How about this sequence: ATTAGAGG
RESULT: false

QUERY: How about this sequence: ACTATGTA
RESULT: true

QUERY: How about this sequence: CCTGGCAA
RESULT: false

QUERY: How about this sequence: AAGACTAT
RESULT: false

QUERY: How about this sequence: AGCGACCA
RESULT: false

QUERY: How about this sequence: CCTATGAA
RESULT: false

QUERY: How about this sequence: ACTTAATC
RESULT: false

QUERY: How about this sequence: CAATACAA
RESULT: false

QUERY: How about this sequence: ATGACACA
RESULT: false

QUERY: How about this sequence: ACTTGAAC
RESULT: false

QUERY: How about this sequence: CAATACAC
RESULT: false

QUERY: How about this sequence: CAGAACAG
RESULT: false

QUERY: How about this sequence: ATGTTGTA
RESULT: true

QUERY: How about this sequence: CGAACACA
RESULT: false

QUERY: How about this sequence: CGATCAAA
RESULT: false

QUERY: How about this sequence: AATATACA
RESULT: true

QUERY: How about this sequence: CGTAGACA
RESULT: false

QUERY: How about this sequence: ATCTTCGG
RESULT: false

QUERY: How about this sequence: ATGACACC
RESULT: false

QUERY: How about this sequence: AGTATACT
RESULT: false

QUERY: How about this sequence: CTGACATC
RESULT: false

QUERY: How about this sequence: CGCGTACC
RESULT: false

QUERY: How about this sequence: GCCGTGAA
RESULT: false

QUERY: How about this sequence: AGGTTGTA
RESULT: true

QUERY: How about this sequence: GCTATGTA
RESULT: false

QUERY: How about this sequence: CATTACCA
RESULT: false

QUERY: How about this sequence: AGAACACA
RESULT: true

QUERY: How about this sequence: ACCGTGCA
RESULT: false

QUERY: How about this sequence: CCTATGTA
RESULT: true

QUERY: How about this sequence: CTCTGAAG
RESULT: false

QUERY: How about this sequence: CCCTGCGG
RESULT: false

QUERY: How about this sequence: CGGCCTAC
RESULT: false

QUERY: How about this sequence: GTGACACA
RESULT: false

QUERY: How about this sequence: ACTTTTCG
RESULT: false

QUERY: How about this sequence: GCTAGATA
RESULT: false

QUERY: How about this sequence: ACCGTGTC
RESULT: true

QUERY: How about this sequence: ATGGACGG
RESULT: false

QUERY: How about this sequence: ATCCTTCG
RESULT: false

QUERY: How about this sequence: ATGTTGAC
RESULT: true

QUERY: How about this sequence: AGCCCAGC
RESULT: false

QUERY: How about this sequence: AAATACTT
RESULT: false

QUERY: How about this sequence: ACAACACT
RESULT: true

QUERY: How about this sequence: GGACTCCA
RESULT: false

QUERY: How about this sequence: CGGTTGTA
RESULT: false

QUERY: How about this sequence: AGGTAATA
RESULT: false

QUERY: How about this sequence: GTTATACA
RESULT: true

QUERY: How about this sequence: ATGCAGCC
RESULT: false
